meta.source: PubChem BioAssay (EPA / NIEHS)

Target: Ratio of Nucleoli Translocation and Cytoplasm, AR (gene 367) (UniProt P10275)
Sequence (P10275 whole entry, looked up): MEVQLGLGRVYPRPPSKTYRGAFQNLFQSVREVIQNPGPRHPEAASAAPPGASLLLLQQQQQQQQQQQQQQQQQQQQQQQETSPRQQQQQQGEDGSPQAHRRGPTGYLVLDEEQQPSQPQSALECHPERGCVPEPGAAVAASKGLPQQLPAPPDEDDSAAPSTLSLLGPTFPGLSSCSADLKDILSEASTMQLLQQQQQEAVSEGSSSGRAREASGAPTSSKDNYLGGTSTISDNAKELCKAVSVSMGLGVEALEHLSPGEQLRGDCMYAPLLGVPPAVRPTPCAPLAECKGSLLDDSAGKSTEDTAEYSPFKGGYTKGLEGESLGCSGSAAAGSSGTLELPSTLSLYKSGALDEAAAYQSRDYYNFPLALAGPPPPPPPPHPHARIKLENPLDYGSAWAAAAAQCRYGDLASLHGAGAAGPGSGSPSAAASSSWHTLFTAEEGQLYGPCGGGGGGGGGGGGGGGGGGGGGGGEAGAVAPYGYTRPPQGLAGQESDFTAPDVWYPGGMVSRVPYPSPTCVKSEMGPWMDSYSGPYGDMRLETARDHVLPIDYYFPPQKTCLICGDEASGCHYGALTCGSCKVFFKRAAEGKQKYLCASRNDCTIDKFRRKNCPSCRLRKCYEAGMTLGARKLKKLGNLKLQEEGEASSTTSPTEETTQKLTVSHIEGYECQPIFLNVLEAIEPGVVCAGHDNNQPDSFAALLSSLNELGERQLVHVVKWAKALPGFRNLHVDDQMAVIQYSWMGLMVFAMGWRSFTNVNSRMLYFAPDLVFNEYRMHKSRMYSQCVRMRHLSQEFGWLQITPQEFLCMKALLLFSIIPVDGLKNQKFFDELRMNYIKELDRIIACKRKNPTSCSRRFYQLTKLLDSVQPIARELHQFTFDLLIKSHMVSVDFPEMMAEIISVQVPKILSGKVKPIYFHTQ
Test: UPITT_HCI_U2OS_AR_TIF2_Nucleoli_Cytoplasm_Ratio_Agonist: University of Pittsburgh U2OS Androgen Receptor-Transcriptional Intermediary Factor 2 (AR-TIF2) Agonism High Content Imaging Assay for Ratio of Nucleoli Translocation and Cytoplasm (AID 2284000);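 further: hits raise the red nucleolar to cytoplasm ratio above vehicle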
Records with an inconclusive call do not appear. Active and inactive are the calls of the source. How the source made its calls: active means hit-call score of the fitted dose curve at least 0.9, where 1 is the maximum; inconclusive means response in the unintended direction; inactive means score below 0.9.
Outcome field: choose from 1 (yes) for active, 0 (no) for inactive

Exam item: Could you check what this test reported for CCN(Cc1cccnc1)C(=O)c1cccc(Cl)c1[C@]1(C)C(=O)N(Cc2ccc(OC)cc2OC)c2ccc(Cl)cc21 ?
Marked response: 0 (no)

Exam item: // next record Cc1ccc(C(C)C)cc1
Marked response: 0 (no)

Exam item: Subsequent entry: Oc1ccc2ccccc2c1
Marked response: 0 (no)

Exam item: Same read-out for CCCC(=O)OCCC(C)C ?
Marked response: 0 (no)

Exam item: For NCc1cccc(C2CCN(C(=O)c3ccc(C#Cc4ccccc4F)o3)CC2)c1 then?
Marked response: 1 (yes)

Exam item: And then NC(=O)c1nc(-c2cccc(-c3cc(F)ccc3OCC(F)(F)C(F)(F)F)c2)n[nH]1 , what is it?
Marked response: 1 (yes)

Exam item: Note, next up: OCCO
Marked response: 0 (no)
